Target: HSD17B7 (Homo sapiens)
Construct: GST (own knowledge: pGEX vectors encode N-terminal GST); made in house; host or cells: E. coli BL21 DE3 Codon Plus RP
Sequence (P56937 1-341): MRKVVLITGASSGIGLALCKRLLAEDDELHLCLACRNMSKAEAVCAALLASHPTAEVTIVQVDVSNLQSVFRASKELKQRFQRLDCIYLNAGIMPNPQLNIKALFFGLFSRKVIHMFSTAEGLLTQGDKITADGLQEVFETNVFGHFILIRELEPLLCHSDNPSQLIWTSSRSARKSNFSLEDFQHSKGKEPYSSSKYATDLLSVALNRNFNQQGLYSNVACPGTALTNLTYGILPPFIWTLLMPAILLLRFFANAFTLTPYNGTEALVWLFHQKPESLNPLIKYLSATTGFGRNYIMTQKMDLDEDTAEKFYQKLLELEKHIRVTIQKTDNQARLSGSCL
Experiment: HSD17B7 inhibition assay (estrone to oestradiol)
Type: biochemical
Conditions: 10 µM compound; mean ± SD
Mark n for Inhibition of HSD17B7 at 10 µM in % values under 6%, and y for everything at or above.

[in] Inhibition of HSD17B7 at 10 µM in % >= 6% for COc1ccc(/C=C/C(=O)c2c(O)cc(O)cc2O)cc1 [Compound 19] ?
[out] n

[in] Is it the case that Cc1ccc(/C=C/C(=O)c2c(O)cc(O)cc2O)cc1 [Compound 21] has Inhibition of HSD17B7 at 10 µM in % reaching or exceeding 6%?
[out] y

[in] Given the entry COc1ccc(/C=C/C(=O)c2c(O)cc(O)cc2OC)cc1 [Compound 18] , answer whether its Inhibition of HSD17B7 at 10 µM in % meets or surpasses 6%.
[out] y

[in] State whether the measured Inhibition of HSD17B7 at 10 µM in % reaches 6%, counting equality as reaching it, for COc1cc(O)cc(O)c1C(=O)/C=C/c1ccc(Cl)cc1Cl [Compound 25]
[out] y

[in] Check this compound for Inhibition of HSD17B7 at 10 µM in % at or above 6%: Cc1cccc(/C=C/C(=O)c2c(O)cc(O)cc2O)c1 [Compound 20]
[out] n

----------
Target: HSD17B2 (Homo sapiens)
Construct: GST (own knowledge: pGEX vectors encode N-terminal GST); made in house; host or cells: E. coli BL21 DE3 Codon Plus RP
Sequence (P37059 1-387): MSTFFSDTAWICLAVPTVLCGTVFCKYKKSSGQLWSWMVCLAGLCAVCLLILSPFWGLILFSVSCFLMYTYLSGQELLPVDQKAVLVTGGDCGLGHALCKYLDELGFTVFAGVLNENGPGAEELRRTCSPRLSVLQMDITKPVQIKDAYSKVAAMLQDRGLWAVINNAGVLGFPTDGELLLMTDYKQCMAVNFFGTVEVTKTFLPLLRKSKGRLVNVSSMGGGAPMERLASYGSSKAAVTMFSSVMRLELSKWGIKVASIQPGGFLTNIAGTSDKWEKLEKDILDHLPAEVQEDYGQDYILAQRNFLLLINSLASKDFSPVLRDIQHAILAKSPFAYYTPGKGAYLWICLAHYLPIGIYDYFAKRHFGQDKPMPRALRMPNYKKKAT
Experiment: HSD17B2 inhibition assay (oestradiol to estrone)
Type: biochemical
Details: 10 µM compound; mean ± SD
Description: For enzymatic assays and inhibitor testing, all enzymes were cloned into bacterial or mammalian expression vectors. […] Inhibition assays were carried out as described in [71, 74]. […] Radioactivity was detected by online scintillation counting by using a radioactivity monitor (LB506D, Berthold Technologies, Bad Wildbad, Germany). Conversion of substrates to products was determined by integration of the peak area of the substrate and product peaks in percent. […]
Use label 1 when the recorded Inhibition of HSD17B2 at 10 µM in % is no lower than 30%; use label 0 when it is lower.

[in] Test whether the compound COc1ccc(/C=C/C(=O)c2c(O)cc(O)cc2OC)cc1 records Inhibition of HSD17B2 at 10 µM in % of 30% or higher.
[out] label 0

[in] Quick check, Inhibition of HSD17B2 at 10 µM in % >= 30%? Cc1cccc(/C=C/C(=O)c2c(O)cc(O)cc2O)c1
[out] label 1

[in] Check the entry Cc1ccc(/C=C/C(=O)c2c(O)cc(O)cc2O)cc1 : does Inhibition of HSD17B2 at 10 µM in % equal or exceed 30%?
[out] label 1

[in] Kindly determine if Inhibition of HSD17B2 at 10 µM in % recorded for COc1cc(O)cc(O)c1C(=O)/C=C/c1ccc(Cl)cc1Cl is above or exactly 30%.
[out] label 0
